# System: S2013
# ASSAY_DETAILS: MTT growth inhibition assay
# Assay type: cell-based, human
# RECORDED_CONDITIONS: S2013, cancer cell, 72 hr, read-out: Growth inhibitory activity (IC50)
ATTRIBUTE_MEASURED: pIC50
Please note pIC50 is a logarithmic value: minus log10 of concentration in mol/L. Answer with that number alone.

What pIC50 appears in the records for this molecule with S2013? O=C1C(NCc2ccccc2)=CC2=NCCc3c[nH]c1c32
5.41

What pIC50 appears in the records for this molecule with S2013? O=C1C(NCCc2ccccc2)=CC2=NCCc3c[nH]c1c32
5.27

----------
# Test system: MCF-7
# ASSAY_DETAILS: XTT cytotoxicity assay
# Type: cell-based, human
# RECORDED_CONDITIONS: XTT; average ± standard deviation of 2-4 independent assays; read-out: Inhibition of Cancer Cell Proliferation (IC50) MCF-7
Exercise: for every item that follows, state its recorded pIC50.
Please note pIC50 is a logarithmic value: minus log10 of concentration in mol/L. Answer with that number alone.

Requested read-out: pIC50. Entry: O=C1C(NCCc2c[nH]c3ccccc23)=CC2=NCCc3c[nH]c1c32
5.80

Requested read-out: pIC50. Entry: Cc1ccc(S(=O)(=O)n2cc3c4c2C(=O)C(NCCc2ccccc2)=CC4=NCC3)cc1
5.82

Requested read-out: pIC50. Entry: CNC1=CC2=NCCc3c[nH]c(c32)C1=O
5.89

Requested read-out: pIC50. Entry: Cc1ccc(S(=O)(=O)n2cc3c4c2C(=O)C(NCc2ccccc2)=CC4=NCC3)cc1
5.74

Requested read-out: pIC50. Entry: Cc1ccc(S(=O)(=O)n2cc3c4c2C(=O)C(NCCc2c[nH]c5ccccc25)=CC4=NCC3)cc1
5.92

Requested read-out: pIC50. Entry: O=C1C(NCCc2ccccc2)=CC2=NCCc3c[nH]c1c32
5.77

Requested read-out: pIC50. Entry: CCNC1=CC2=NCCc3c[nH]c(c32)C1=O
5.89

----------
Exercise: for every item that follows, state its recorded IC50.
# Tested on: CFPAC1
# ASSAY_DETAILS: MTT growth inhibition assay
# Format: cell-based, human
# RECORDED_CONDITIONS: CFPAC1, cancer cell, 72 hr, read-out: Growth inhibitory activity (IC50)
Form entry: value (µM) — number only.

What IC50 appears in the records for this molecule with CFPAC1? O=C1C(NCc2ccccc2)=CC2=NCCc3c[nH]c1c32
8.77

What IC50 appears in the records for this molecule with CFPAC1? O=C1C(NCCc2ccccc2)=CC2=NCCc3c[nH]c1c32
5.11

----------
# Test system: CFPAC1
# ASSAY_DETAILS: MTT growth inhibition assay
# Format: cell-based, human
# RECORDED_CONDITIONS: Homo sapiens, CFPAC-1, CFPAC1, cancer cell, 72 hr, read-out: Growth inhibitory activity (IC50)
# Experimental: Several of the disclosed compounds were also tested for their ability to inhibit the growth of other cancer cell lines as shown in Tables 4 and 5. […] All media contained 10% FBS and 1% penicillin/streptomycin unless otherwise specified. The effects of disclosed compounds on human cancer cell growth, expressed as the percentage of cell survival, were determined by the MTT [3-(4,5-Dimethyl-2-thiazolyl)-2,5-diphenyl-2H-tetrazolium bromide] assay. […]
Exercise: for every item that follows, state its recorded IC50.
Form entry: value (µM) — number only.

Requested read-out: IC50. Entry: O=C(O)C(F)(F)F.O=C1C(NCc2ccc(F)cc2)=CC2=NCCc3c[nH]c1c32 [Compound 28]
5.4

Requested read-out: IC50. Entry: COc1ccc(CCNC2=CC3=NCCc4c[nH]c(c43)C2=O)cc1OC.O=C(O)C(F)(F)F [Compound 20]
4.27

Requested read-out: IC50. Entry: O=C(O)C(F)(F)F.O=C1C(NCCc2ccc3c(c2)OCO3)=CC2=NCCc3c[nH]c1c32 [Compound 6]
9.1
